- assayTarget: Human aminopeptidase P2 (APP2) (Homo sapiens (Human), UniProt O43895)
- Sequence (O43895 22-674): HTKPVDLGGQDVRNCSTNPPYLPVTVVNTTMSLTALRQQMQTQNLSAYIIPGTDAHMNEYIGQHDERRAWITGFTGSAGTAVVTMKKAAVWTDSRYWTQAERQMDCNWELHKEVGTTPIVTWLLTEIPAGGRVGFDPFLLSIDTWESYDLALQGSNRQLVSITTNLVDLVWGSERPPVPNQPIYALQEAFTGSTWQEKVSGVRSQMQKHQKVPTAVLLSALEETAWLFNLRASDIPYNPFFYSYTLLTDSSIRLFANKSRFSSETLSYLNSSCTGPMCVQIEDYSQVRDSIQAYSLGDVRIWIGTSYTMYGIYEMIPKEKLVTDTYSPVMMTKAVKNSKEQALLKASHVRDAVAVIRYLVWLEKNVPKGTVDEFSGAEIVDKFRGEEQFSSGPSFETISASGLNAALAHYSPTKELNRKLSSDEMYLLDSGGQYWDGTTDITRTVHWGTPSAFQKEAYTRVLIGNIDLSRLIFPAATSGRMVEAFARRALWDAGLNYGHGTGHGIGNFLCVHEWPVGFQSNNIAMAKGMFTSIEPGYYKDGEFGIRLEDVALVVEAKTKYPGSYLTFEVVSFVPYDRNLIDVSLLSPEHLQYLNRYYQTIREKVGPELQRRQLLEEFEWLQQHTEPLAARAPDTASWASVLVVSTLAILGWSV
- assaySummary: Determination of human APP2 activity (quenched fluorescent substrate)
- Format: biochemical
- testSettings: selectivity, ratio of IC50s for ACE/APP2

| querySmiles | IC50 ratio ACE/APP2 |
| --- | --- |
| CC(C)C[C@H](S)C(=O)N1CCC[C@H]1C(=O)N1CCC[C@H]1C(=O)N1CC[C@H](C(=O)O)C1 | 1,900 |
| CC(C)C[C@H](S)C(=O)N1C[C@@H](F)C[C@H]1C(=O)N1CCC[C@H]1C(=O)N1CC[C@@H](C(=O)O)C1 | 18,000 |
| CC(C)C[C@H](S)C(=O)N1CCC[C@H]1C(=O)N1CCC[C@H]1C(=O)N1CCC[C@@H]1C(=O)O | 1,200 |
| CC(C)C[C@H](S)C(=O)N1CCC[C@H]1C(=O)N1CCC[C@H]1C(=O)N(C)[C@@H](C)C(=O)O | 160 |

###

Each entry below carries its recorded pIC50.
- assayTarget: Human aminopeptidase P2 (APP2) (Homo sapiens (Human))
- assaySummary: Determination of human APP2 activity (quenched fluorescent substrate)
- Format: biochemical
- testSettings: purified human kidney APP2, substrate 1 μM (=Km), pH 7.4, 30° C.; read-out: Binding affinity (IC50) APP2
pIC50: −log10 of the molar value.

| querySmiles | pIC50 |
| --- | --- |
| CC(C)C[C@H](S)C(=O)N1CCC[C@H]1C(=O)N1CCC[C@H]1C(=O)N1CCC[C@@H]1C(=O)O | 8.01 |
| CC(C)C[C@H](S)C(=O)N1CCC[C@H]1C(=O)N1CCC[C@H]1C(=O)N1CC[C@H](C(=O)O)C1 | 7.59 |
| CC(C)C[C@H](S)C(=O)N1C[C@@H](F)C[C@H]1C(=O)N1CCC[C@H]1C(=O)N1CC[C@@H](C(=O)O)C1 | 8.43 |
| CC(C)C[C@H](S)C(=O)N1CCC[C@H]1C(=O)N1CCC[C@H]1C(=O)N(C)[C@@H](C)C(=O)O | 8.41 |

###

- assayTarget: Human recombinant angiotensin-converting enzyme (hrACE) (Homo sapiens (Human))
- Sequence (P12821 30-1306): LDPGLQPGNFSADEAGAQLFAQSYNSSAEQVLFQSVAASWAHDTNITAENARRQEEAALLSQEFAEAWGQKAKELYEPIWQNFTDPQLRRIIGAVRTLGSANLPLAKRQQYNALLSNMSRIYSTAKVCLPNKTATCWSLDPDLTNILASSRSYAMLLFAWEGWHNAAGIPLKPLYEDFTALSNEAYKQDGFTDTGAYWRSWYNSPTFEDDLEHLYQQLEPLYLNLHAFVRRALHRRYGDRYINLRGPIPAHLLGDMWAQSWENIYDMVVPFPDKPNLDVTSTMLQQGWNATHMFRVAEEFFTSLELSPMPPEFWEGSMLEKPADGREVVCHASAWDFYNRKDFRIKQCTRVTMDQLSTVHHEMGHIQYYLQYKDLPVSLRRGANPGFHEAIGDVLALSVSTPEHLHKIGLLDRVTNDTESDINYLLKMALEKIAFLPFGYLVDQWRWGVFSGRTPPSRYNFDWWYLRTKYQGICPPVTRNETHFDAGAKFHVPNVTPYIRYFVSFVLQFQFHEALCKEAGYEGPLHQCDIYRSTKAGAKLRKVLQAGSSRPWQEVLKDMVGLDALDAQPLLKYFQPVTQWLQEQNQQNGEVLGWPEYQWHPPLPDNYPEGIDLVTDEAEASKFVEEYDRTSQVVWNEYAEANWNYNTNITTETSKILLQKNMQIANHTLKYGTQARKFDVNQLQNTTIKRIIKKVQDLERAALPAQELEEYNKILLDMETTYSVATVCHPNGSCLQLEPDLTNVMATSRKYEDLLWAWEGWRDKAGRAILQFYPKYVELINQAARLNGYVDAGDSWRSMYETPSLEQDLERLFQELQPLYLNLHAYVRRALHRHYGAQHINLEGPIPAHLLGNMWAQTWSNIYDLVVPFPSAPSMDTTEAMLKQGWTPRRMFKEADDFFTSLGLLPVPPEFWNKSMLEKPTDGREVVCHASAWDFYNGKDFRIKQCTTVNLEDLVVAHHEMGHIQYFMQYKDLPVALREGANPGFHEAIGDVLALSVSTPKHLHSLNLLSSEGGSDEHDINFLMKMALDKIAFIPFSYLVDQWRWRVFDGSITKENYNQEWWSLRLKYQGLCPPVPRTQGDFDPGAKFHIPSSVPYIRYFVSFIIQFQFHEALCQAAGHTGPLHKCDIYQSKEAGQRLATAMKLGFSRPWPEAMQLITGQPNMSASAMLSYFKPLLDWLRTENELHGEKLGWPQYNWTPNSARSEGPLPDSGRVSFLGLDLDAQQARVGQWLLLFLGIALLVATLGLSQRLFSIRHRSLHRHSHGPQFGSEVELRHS
- assaySummary: Determination of human ACE activity (quenched fluorescent substrate ES005)
- testSettings: hrACE, substrate below Km, pH 7.4, 30° C.; read-out: Binding affinity (IC50) ACE
assayEndpoint: IC50 (µM)

| compound | assayTarget | unitTag | numericReadout |
| --- | --- | --- | --- |
| CC(C)C[C@H](S)C(=O)N1C[C@@H](F)C[C@H]1C(=O)N1CCC[C@H]1C(=O)N1CC[C@@H](C(=O)O)C1 [Formula III] | Human recombinant angiotensin-converting enzyme (hrACE) (Homo sapiens (Human)) | µM | 68 |
| CC(C)C[C@H](S)C(=O)N1CCC[C@H]1C(=O)N1CCC[C@H]1C(=O)N1CC[C@H](C(=O)O)C1 [Formula V] | Human recombinant angiotensin-converting enzyme (hrACE) (Homo sapiens (Human)) | µM | 49 |
| CC(C)C[C@H](S)C(=O)N1CCC[C@H]1C(=O)N1CCC[C@H]1C(=O)N1CCC[C@@H]1C(=O)O [Formula VI] | Human recombinant angiotensin-converting enzyme (hrACE) (Homo sapiens (Human)) | µM | 12 |
| CC(C)C[C@H](S)C(=O)N1CCC[C@H]1C(=O)N1CCC[C@H]1C(=O)N(C)[C@@H](C)C(=O)O [Formula VII] | Human recombinant angiotensin-converting enzyme (hrACE) (Homo sapiens (Human)) | µM | 0.64 |
